test: differential killing of epithelial or mesenchymal cells, primary screen, imaging, PC-3E GFP, TEM4-18 mCherry, co-culture (AID 1345086); conditions: imaging cell counts, measured here: epithelial PC-3E GFP cell survival, at 1 µM;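 note: cells exposed to compound for 72 h before imaging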
Assignment: determine reported normalised cell number for the given compounds.
# output: bare number, no unit

[in] Quick check: normalised cell number of "OC[C@H]1O[C@@](CO)(O[C@@H]2O[C@H](CO)[C@@H](O)[C@H](O)[C@H]2O)[C@@H](O[C@@H]2O[C@H](CO)[C@@H](O)[C@H](O)[C@H]2O)[C@@H]1O" ?
[out] 1.13

[in] Quick check: normalised cell number of C[C@H]1C(=O)CCC2[C@]3(C)CC[C@@]4(C)C5CC(C)(C)CC[C@]5(C)CC[C@]4(C)C3CC[C@@]21C (stereo not given in full) ?
[out] 1.06

[in] Quick check: normalised cell number of C[C@@H]1CCC2[C@](C)(CO)[C@@H](O)CC[C@]2(C)[C@@]12CC[C@@](CO)(CCO)O2 (stereo not given in full) ?
[out] 1.01

[in] Quick check: normalised cell number of "NC(=O)c1cc(F)c(F)cc1F" ?
[out] 1.12

[in] Quick check: normalised cell number of C#C[C@]1(O)CC[C@@H]2C3[C@H](C)CC4=C(CCC(=O)C4)[C@H]3CC[C@@]21C (stereo not given in full) ?
[out] 1.07

---

assay: survival rescue of mitochondrial mutant cells in low glucose, primary screen, MELAS cybrids, Rieske KO mouse fibroblasts, CellTiter-Glo (AID 1508586); conditions: Rieske KO mouse fibroblast survival, CellTiter-Glo 72 h;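 note: z relative to plate mean and SD of compound and empty wells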
Assignment: determine reported z-score for the given compounds.
# output: bare number, no unit

[in] Quick check: z-score of COCC1=C(C(=O)OC(C)OC(=O)OC(C)C)N2C(=O)[C@@H](NC(=O)/C(=N\OC)c3csc(N)n3)[C@H]2SC1 (stereo not given in full) ?
[out] -0.177

[in] Quick check: z-score of COc1ccc(C2Sc3ccccc3N(CCN(C)C)C(=O)C2OC(C)=O)cc1 (stereo not given) ?
[out] -0.2

[in] Quick check: z-score of "COc1cc(C)c(/C=C/C(C)=C/C=C/C(C)=C/C(=O)O)c(C)c1C" ?
[out] 1.44

[in] Quick check: z-score of OC(c1cc(C(F)(F)F)nc2c(C(F)(F)F)cccc12)C1CCCCN1 (stereo not given) ?
[out] -3.08

[in] Quick check: z-score of "C=CCc1ccc(O)c(-c2ccc(O)c(CC=C)c2)c1" ?
[out] 0.74

[in] Quick check: z-score of NC(N)=NCC1COC2(CCCCC2)O1 (stereo not given) ?
[out] 0.202

[in] Quick check: z-score of "O=C(Nc1ccccc1)c1cc([N+](=O)[O-])ccc1Cl" ?
[out] 0.0531

[in] Quick check: z-score of "Cc1ccc(NC(=O)c2cccc(N(C)C)c2)cc1NC(=O)c1ccc(O)cc1" ?
[out] 0.706

[in] Quick check: z-score of "CN1C(C(=O)Nc2ccccn2)=C(O)c2sc(Cl)cc2S1(=O)=O" ?
[out] 0.681

[in] Quick check: z-score of NC(Cc1cc(I)c(Oc2ccc(O)c(I)c2)c(I)c1)C(=O)O (stereo not given) ?
[out] 0.0136

---

assay: inhibition of 3D7 malaria parasite growth – strain 3D7 (AID 2306);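 note: 0% = DMSO wells and 100% = chloroquine plus artemisinin control wells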; details: P. falciparum 3D7 erythrocytic growth, LDH absorbance, 72 h; at 2 µM; stronger effect = higher value
Assignment: determine reported growth inhibition for the given molecules.
Your answer is read as %, so omit the unit and give the number.

[in] Quick check: growth inhibition of "NCCNC(=O)c1ccc(-c2cnc3[nH]cc(-c4ccc(C(N)=O)cc4)c3c2)cc1" ?
[out] 99

[in] Quick check: growth inhibition of "CN1CCN(c2ccc(Nc3ncc(C#N)c(Nc4ccccc4C(N)=O)n3)cc2)CC1" ?
[out] 92

[in] Quick check: growth inhibition of "CCOc1ccc2nc(C)cc(NN=Cc3ccncc3)c2c1" ?
[out] 99

[in] Quick check: growth inhibition of "Nc1ncc(-c2cn[nH]c2)cc1-c1nc2ncc(Cl)cc2[nH]1" ?
[out] 100

[in] Quick check: growth inhibition of "c1ccc(Oc2ccc(Nc3ccnc(Nc4ccc5cn[nH]c5c4)n3)cc2)cc1" ?
[out] 94

[in] Quick check: growth inhibition of "COc1cc(Nc2ncnc3cc(OC)c(OC)cc23)cc([N+](=O)[O-])c1" ?
[out] 97

[in] Quick check: growth inhibition of CC1CCCN(C(=O)C(C)Nc2cc(Cl)ccc2N2CCOCC2)C1 (stereo unspecified) ?
[out] 101

[in] Quick check: growth inhibition of "c1ccc(COc2ccc(Nc3ncnc4cnc(-c5ccc(CNc6cccnc6)o5)cc34)cc2)cc1" ?
[out] 96

[in] Quick check: growth inhibition of "Cc1[nH]c(C)c(-c2ccc(Oc3ccc(Cl)cc3)cc2)c(=O)c1C" ?
[out] 96

[in] Quick check: growth inhibition of "O=[N+]([O-])c1cccc(CNC2CCN(Cc3ccc(-c4ccccc4)cc3)CC2)c1" ?
[out] 100

[in] Quick check: growth inhibition of "COc1ccc2c(c1CNCCCCCCNCc1c(OC)ccc3c1CCCC3)CCCC2" ?
[out] 94

[in] Quick check: growth inhibition of "Cc1cccc2[nH]c(-c3ccc(-c4ccc(C(=O)NCCN5CCCC5)cc4)cc3)nc12" ?
[out] 101

[in] Quick check: growth inhibition of "CCOc1cccc(C(=O)Nc2nonc2-c2ccc(OC)c(OC)c2)c1" ?
[out] 92

[in] Quick check: growth inhibition of "COc1ccc(CCN2CC[C@H](CNc3nc(-c4ccccc4)nc4ccccc34)C2)cc1S(N)(=O)=O" ?
[out] 85

[in] Quick check: growth inhibition of "CCc1nc2nc(C)cc(Nc3cc(C)cc(C)c3)n2n1" ?
[out] 96

[in] Quick check: growth inhibition of CC(C)CC1c2[nH]c3ccccc3c2CCN1C(=O)CCc1ccccc1 (stereo unspecified) ?
[out] 92

[in] Quick check: growth inhibition of CCn1cc(C=C2Oc3c(ccc(O)c3CN3CCCCC3C)C2=O)c2ccccc21 (stereo unspecified) ?
[out] 94

[in] Quick check: growth inhibition of "CN(c1ccc(NC(=O)Nc2cc(C(C)(C)C)on2)cc1)c1ccnc(NCCN2CCOCC2)n1" ?
[out] 95

[in] Quick check: growth inhibition of "Cc1ccc(NC(=O)c2cccc(CN3CCCN(CC4CCCCC4)CC3)c2)cc1F" ?
[out] 85

[in] Quick check: growth inhibition of "Nc1cc(C(F)(F)F)ccc1Cl" ?
[out] 97

[in] Quick check: growth inhibition of C=CC(C)C1OC(=O)c2cc(OC)cc(OC)c21 (stereo unspecified) ?
[out] 100

---

experiment: inhibition of 3D7 malaria parasite growth – strain 3D7 (AID 2306);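 note: 0% = DMSO wells and 100% = chloroquine plus artemisinin control wells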; conditions: P. falciparum 3D7 erythrocytic growth, LDH absorbance, 72 h; at 2 µM; stronger effect = higher value
Test Readout: growth inhibition (%)
Your answer is read as %, so omit the unit and give the number.

[in] Quick check: growth inhibition of "CN(Cc1cc(C(F)(F)F)cc(C(F)(F)F)c1)C(=O)[C@H]1CNC[C@@H]1c1ccc(F)cc1" ?
[out] 92

[in] Quick check: growth inhibition of "CC(=O)Nc1cccc(Nc2nccc(-c3c(-c4cccc(NC(=O)c5c(F)cccc5F)c4)nn4ncccc34)n2)c1" ?
[out] 96

[in] Quick check: growth inhibition of "CCCN(CCC)CCCNc1ccc(C(=O)Nc2ccc(C(C)C)cc2)cc1[N+](=O)[O-]" ?
[out] 98

[in] Quick check: growth inhibition of "Cc1cccc(CCNC(=O)c2cc(Br)cc(N3CCN(c4ccncc4)CC3)c2)c1" ?
[out] 96

[in] Quick check: growth inhibition of COc1ccc(C2CC(c3cccs3)=NN2C(=O)COc2cccc(C(C)=O)c2)cc1OC (stereo not given) ?
[out] 99

[in] Quick check: growth inhibition of "O=c1[nH]ccc2nc(N[C@@H]3CCCNC3)nc(Nc3ccc(S(=O)(=O)N4CCOCC4)cc3)c12" ?
[out] 96

[in] Quick check: growth inhibition of "CCCCN(CCCC)CCCN(CCCN(CCCC)CCCC)c1cc(C)nc(Nc2ccc(Cl)cc2)n1" ?
[out] 101

[in] Quick check: growth inhibition of "CCc1cn2c3c(cc(C(=O)N[C@@H](Cc4ccccc4)[C@H](O)CNC(C)(C)CCCC(C)C)cc13)N(C)S(=O)(=O)C2" ?
[out] 98

[in] Quick check: growth inhibition of "COc1cccc(NC(=O)Cn2c(C)c(C(=O)C(F)(F)F)c3ccccc32)c1" ?
[out] 97

[in] Quick check: growth inhibition of "Oc1cc2c(cc1CN1CCN(Cc3ccc(Cl)s3)CC1)CCC2" ?
[out] 98

[in] Quick check: growth inhibition of "O=[N+]([O-])c1ccccc1C=NNc1ccnc2ccccc12" ?
[out] 101

[in] Quick check: growth inhibition of "Oc1ccc(-c2cncc(NCc3ccc(F)c(F)c3)c2)cc1" ?
[out] 95

[in] Quick check: growth inhibition of CC(CN(C)C)C(=O)Nc1ccc(-c2ccc(-c3nc4ccccc4[nH]3)cc2)cc1 (stereo not given) ?
[out] 99

[in] Quick check: growth inhibition of "N=C(N)c1nc2ccccc2s1" ?
[out] 87

[in] Quick check: growth inhibition of "CCc1cc2c(cc1CC)CC(NC[C@@H](O)c1ccc(O)c3[nH]c(=O)ccc13)C2" ?
[out] 101

[in] Quick check: growth inhibition of COC(=O)c1ccc(CC(C)NCC(O)c2ccc(C(O)CNC(C)Cc3ccc(C(=O)OC)cc3)cc2)cc1 (stereo not given) ?
[out] 88

[in] Quick check: growth inhibition of "COc1ccc2c(CNCCCCCCNCc3c(OC)ccc4cc(OC)ccc34)c(OC)ccc2c1" ?
[out] 101

[in] Quick check: growth inhibition of "CN(C)Cc1ccc(-c2cc3c(Nc4ccc(OCc5cccc(F)c5)c(Cl)c4)ncnc3s2)[nH]1" ?
[out] 100

[in] Quick check: growth inhibition of "Cc1cccc(C(=O)Nc2ccnc(N(C)CCCN(C)Cc3cccc(C#N)c3)c2)c1" ?
[out] 92

[in] Quick check: growth inhibition of "Cc1nc(Nc2ccc(F)cc2)nc(N2CCc3ccccc3[C@@H]2C)c1C" ?
[out] 92
